Target: UniProt P28845
Assay: Inhibition constant Ki of human 11b-hsd-1 (3H-cortisone to 3H-cortisol conversion, HPLC)
Format: biochemical
Settings: 0.1 μM compound
reportedEndpoint: inhibition at 0.1 µM (%)
Answers are plain numbers, in %.

Example entries begin here.
- molecule: "CCc1ccccc1O[C@@H]1CN[C@H](C(=O)NC2C3CC4CC(C3)CC2C4)C1 (some centres unmarked)"
  quantitativeReadout: 100
- molecule: "CC(C)CN1CCC[C@@H]1C(=O)N[C@H]1c2ccccc2C[C@H]1O"
  quantitativeReadout: 99.1
- molecule: "COc1cc(F)ccc1O[C@@H]1CN[C@H](C(=O)NC2C3CC4CC(C3)CC2C4)C1 (some centres unmarked)"
  quantitativeReadout: 100
- molecule: "N#Cc1ccc(CN2CCC[C@@H]2C(=O)N[C@@H]2CCc3ccccc32)cc1"
  quantitativeReadout: 100
- molecule: "O=C(N[C@H]1c2ccccc2C[C@H]1O)[C@H]1COCCN1Cc1ccccc1"
  quantitativeReadout: 89.2

Hi team, please reply with inhibition at 0.1 µM for each item in this list.
1. CCCN1CCOC[C@@H]1C(=O)NC1CCCCC1
2. O=C(NCc1ccc(F)cc1)[C@H]1CCCN1CCC(F)(F)F
3. O=C(NC1C2CC3CC(C2)CC1C3)[C@@H]1C[C@H](Oc2ccc(Cl)cc2)CN1 (some centres unmarked)
4. O=C(NC12CC3CC(CC(C3)C1)C2)[C@H]1[C@H]2CC[C@H](C2)N1Cc1ccc(Cl)cc1 (relative stereo)
5. CC(C)Oc1ccccc1O[C@@H]1CN[C@H](C(=O)NC2C3CC4CC(C3)CC2C4)C1 (some centres unmarked)
6. CC(C)CN1CCC[C@@H]1C(=O)N[C@@H]1CCc2ccccc21
7. CC(C)CN1CCOC[C@@H]1C(=O)N[C@@H]1CCc2ccccc21

[out]
1. 86.6
2. 69.2
3. 97.7
4. 100
5. 100
6. 100
7. 97.7

* * *

Target: human 11b-hsd-1 (Homo sapiens, UniProt P28845)
Sequence (P28845 whole entry): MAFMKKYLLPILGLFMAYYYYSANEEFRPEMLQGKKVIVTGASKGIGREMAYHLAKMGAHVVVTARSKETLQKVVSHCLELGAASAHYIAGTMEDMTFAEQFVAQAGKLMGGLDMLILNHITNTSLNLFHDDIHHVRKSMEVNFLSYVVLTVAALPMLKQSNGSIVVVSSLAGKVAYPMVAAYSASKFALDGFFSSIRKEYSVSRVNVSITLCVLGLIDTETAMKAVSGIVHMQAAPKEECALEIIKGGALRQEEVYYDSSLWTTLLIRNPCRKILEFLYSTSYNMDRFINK
Experiment: Inhibition constant Ki of human 11b-hsd-1 (3H-cortisone to 3H-cortisol conversion, HPLC)
Type: biochemical
Conditions: 0.1 μM compound
reportedEndpoint: inhibition at 0.1 µM (%)
Give bare numbers, in %.

Example entries begin here.
- compound: "CC(C)[C@H]1CCN[C@@H]1C(=O)NC1C2CC3CC(C2)CC1C3 (stereo partly drawn)"
  units: "%"
  quantitativeReadout: 90.7
- compound: "N#Cc1ccc(CN2CCC[C@@H]2C(=O)NCc2ccccc2Cl)cc1"
  units: "%"
  quantitativeReadout: 100
- compound: "N#Cc1ccc(CN2CCC[C@@H]2C(=O)NC23CC4CC(CC(C4)C2)C3)cc1"
  units: "%"
  quantitativeReadout: 100
- compound: "CCCN1CCC[C@@H]1C(=O)N[C@@H]1CCc2ccccc21"
  units: "%"
  quantitativeReadout: 91.4
- compound: "O=C(NCc1ccc(Cl)cc1)[C@H]1CCCN1Cc1ccccc1"
  units: "%"
  quantitativeReadout: 78

Hi team, please reply with inhibition at 0.1 µM for each item in this list.
1. N#Cc1cccc(CN2CCC[C@@H]2C(=O)NC23CC4CC(CC(C4)C2)C3)c1
2. CC(C)CN1[C@H]2CC[C@H](C2)[C@H]1C(=O)NC12CC3CC(CC(C3)C1)C2 (relative stereo)
3. CC(C)CN1CCOC[C@@H]1C(=O)NCC1CCCCC1
4. O=C(NC1C2CC3CC(C2)CC1C3)[C@H]1NCC[C@@H]1CC1CCCCC1 (stereo partly drawn)

[out]
100
100
100
94.9

Hi team, please reply with inhibition at 0.1 µM for each item in this list.
1. CC(C)CN1CCC[C@@H]1C(=O)NC12CC3CC(CC(C3)C1)C2
2. O=C(NC1C2CC3CC(C2)CC1C3)[C@@H]1C[C@H](Oc2ccccc2F)CN1 (stereo partly drawn)
3. COc1ccccc1CNC(=O)[C@H]1CCCN1Cc1ccc(Cl)cc1
4. CC(C)CN1CCOC[C@@H]1C(=O)NCc1ccc(F)cc1F
5. O=C(NC1C2CC3CC(C2)CC1C3)[C@@H]1C[C@H](Oc2cc(F)ccc2F)CN1 (stereo partly drawn)

[out]
1: 100; 2: 100; 3: 100; 4: 84.9; 5: 100

Hi team, please reply with inhibition at 0.1 µM for each item in this list.
1. O=C(NCc1ccccc1Cl)[C@H]1CCCN1Cc1ccccc1
2. CN(C(=O)[C@H]1CSCN1Cc1ccc(Cl)cc1)C1CCCCC1
3. C[C@@H](NC(=O)[C@H]1COCCN1CC1CCCC1)c1ccccc1

[out]
[88, 86.2, 86.1]

[in] Item under review: CC(C)CN1CCCCC1C(=O)NC12CC3CC(CC(C3)C1)C2 (stereo not drawn) . Reported inhibition at 0.1 µM?
[out] 100

* * *

Biological target: human 11b-hsd-1 (Homo sapiens)
Experiment: Inhibition constant Ki of human 11b-hsd-1 (3H-cortisone to 3H-cortisol conversion, HPLC)
Assay type: biochemical
Conditions: apparent Ki; read-out: Ki app
reportedEndpoint: pKi
One number for each entry, as −log10 of the molar value.

Example entries begin here.
- compound: "O=C(NC1Cc2ccccc2C1)[C@H]1CCCN1CC1CCCC1 [Example 294]"
  quantitativeReadout: 8.07
- compound: "O=C(NC1C2CC3CC(C2)CC1C3)[C@@H]1C[C@H](Oc2c(F)cc(F)cc2F)CN1 (stereo partly drawn) [Example 363]"
  quantitativeReadout: 9.00
- compound: "O=C(NCc1ccccc1F)[C@H]1CCCN1Cc1ccccc1 [Example 212]"
  quantitativeReadout: 7.07

Hi team, please reply with pKi for each item in this list.
1. C[C@@H](NC(=O)[C@H]1COCCN1CC1CCCC1)c1ccccc1 [Example 309]
2. O=C(NCc1ccc(F)cc1F)[C@H]1CCCN1CCC(F)(F)F [Example 242]

[out]
[7.49, 7.36]

Hi team, please reply with pKi for each item in this list.
1. O=C(NCc1ccccc1)C1COCCN1CC1CCCCC1 (stereo not drawn) [Example 322]
2. O=C(NCc1ccc(F)cc1)[C@H]1CCCN1CC1CC1 [Example 225]
3. N#Cc1ccccc1CN1CCC[C@@H]1C(=O)N[C@@H]1CCc2ccccc21 [Example 284]

[out]
1. 7.35
2. 6.82
3. 7.94

[in] Give recorded pKi with human 11b-hsd-1 (Homo sapiens) for the following compound: CC(C)CN1C[C@H](O)C[C@@H]1C(=O)NCC1CCCCC1 [Example 337]
[out] 7.89

* * *

Biological target: human 11b-hsd-1 (Homo sapiens, UniProt P28845)
Experiment: Inhibition constant Ki of human 11b-hsd-1 (3H-cortisone to 3H-cortisol conversion, HPLC)
Format: biochemical
Details: apparent Ki, human 11b-hsd-1; read-out: Ki app
reportedEndpoint: log10(Ki) (log10 of the value in µM)
Note: values are log10 of Ki expressed in µM.

Example entries begin here.
- compound: "CCCN1CCC[C@@H]1C(=O)NC1CCCCC1"
  assaySystem: "human 11b-hsd-1 (Homo sapiens, UniProt P28845)"
  log10(Ki): -2.05
- compound: "CCCN1CCC[C@@H]1C(=O)NC1Cc2ccccc2C1"
  assaySystem: "human 11b-hsd-1 (Homo sapiens, UniProt P28845)"
  log10(Ki): -2.10
- compound: "CCCN1CCC[C@@H]1C(=O)NC1CCC(C)CC1 (some centres unmarked)"
  assaySystem: "human 11b-hsd-1 (Homo sapiens, UniProt P28845)"
  log10(Ki): -2.70
- compound: "O=C(NC1C2CC3CC(C2)CC1C3)[C@H]1COCCN1CC1CCCC1 (some centres unmarked)"
  assaySystem: "human 11b-hsd-1 (Homo sapiens, UniProt P28845)"
  log10(Ki): -3.00
- compound: "CC(=O)N1CCC[C@@H]1C(=O)NC1C2CC3CC(C2)CC1C3 (stereo partly drawn) [Example 18, N-2-adamantyl-1-acetyl-D-prolinamide]"
  assaySystem: "human 11b-hsd-1 (Homo sapiens, UniProt P28845)"
  log10(Ki): -1.79
- compound: "O=C(NC1C2CC3CC(C2)CC1C3)[C@H]1COCCN1Cc1ccccc1 (some centres unmarked)"
  assaySystem: "human 11b-hsd-1 (Homo sapiens, UniProt P28845)"
  log10(Ki): -2.62
- compound: "CN(C(=O)C1COCCN1Cc1ccccc1)C1CCCCC1 (centres unmarked)"
  assaySystem: "human 11b-hsd-1 (Homo sapiens, UniProt P28845)"
  log10(Ki): -1.74
- compound: "O=C(NC1CCCCC1)[C@H]1CCCN1CC1CC1"
  assaySystem: "human 11b-hsd-1 (Homo sapiens, UniProt P28845)"
  log10(Ki): -2.15
- compound: "O=C(NC12CC3CC(CC(C3)C1)C2)C1COCCN1CCC1CCOCC1 (centres unmarked)"
  assaySystem: "human 11b-hsd-1 (Homo sapiens, UniProt P28845)"
  log10(Ki): -1.85
- compound: "CC1(C(=O)NC2CCCCC2)CCCN1Cc1ccc(C#N)cc1 (centres unmarked)"
  assaySystem: "human 11b-hsd-1 (Homo sapiens, UniProt P28845)"
  log10(Ki): -1.66

Hi team, please reply with log10(Ki) for each item in this list.
1. O=C(NCc1ccc(Cl)cc1)[C@H]1CCCN1CC1CCCCC1
2. CC(C)OCCN1CCC[C@@H]1C(=O)NC1CCCCC1
3. O=C(NC12CC3CC(CC(C3)C1)C2)C1COCCN1Cc1ccccc1 (centres unmarked)

[out]
-3.00
-1.41
-3.00

This collection of values is drawn from patent US20050261290A1.
